Data credit: patent US5451688A

SUBJECT_OF_TEST: HMG-CoA reductase (Rattus norvegicus, UniProt P51639)
Sequence (P51639 whole entry): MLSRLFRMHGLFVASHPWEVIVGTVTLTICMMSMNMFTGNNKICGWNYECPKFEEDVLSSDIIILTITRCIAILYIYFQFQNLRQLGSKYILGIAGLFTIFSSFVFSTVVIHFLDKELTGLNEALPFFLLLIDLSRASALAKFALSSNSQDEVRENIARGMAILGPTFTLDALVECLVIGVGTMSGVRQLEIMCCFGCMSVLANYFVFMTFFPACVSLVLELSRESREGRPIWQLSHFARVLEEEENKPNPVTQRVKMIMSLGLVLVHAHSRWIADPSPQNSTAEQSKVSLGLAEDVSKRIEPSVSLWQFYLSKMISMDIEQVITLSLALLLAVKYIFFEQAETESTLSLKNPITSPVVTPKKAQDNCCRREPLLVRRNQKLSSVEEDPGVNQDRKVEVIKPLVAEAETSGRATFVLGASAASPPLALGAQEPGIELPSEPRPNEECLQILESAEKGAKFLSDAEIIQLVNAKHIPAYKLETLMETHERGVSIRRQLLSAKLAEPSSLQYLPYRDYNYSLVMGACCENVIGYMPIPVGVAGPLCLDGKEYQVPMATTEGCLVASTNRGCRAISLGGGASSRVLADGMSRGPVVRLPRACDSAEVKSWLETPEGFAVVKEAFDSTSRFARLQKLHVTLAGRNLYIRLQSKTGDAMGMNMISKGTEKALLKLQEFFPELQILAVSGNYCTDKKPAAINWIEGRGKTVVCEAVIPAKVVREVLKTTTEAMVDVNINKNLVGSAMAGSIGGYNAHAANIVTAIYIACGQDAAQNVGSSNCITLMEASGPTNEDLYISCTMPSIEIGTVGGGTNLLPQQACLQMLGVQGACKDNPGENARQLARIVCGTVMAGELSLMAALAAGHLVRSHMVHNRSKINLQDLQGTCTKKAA
pIC50: −log10 of the molar value.
PROPERTY_MEASURED: pIC50

COMPOUND	pIC50
CCC(C)(CC)C(=O)O[C@H]1C[C@H](O)C=C2C=C[C@H](C)[C@H](CC[C@@H](O)C[C@@H](O)CC(=O)O)[C@H]21	7.47
C=CCC(CC)(CC=C)C(=O)O[C@H]1C[C@H](O)C=C2C=C[C@H](C)[C@H](CC[C@@H](O)C[C@@H](O)CC(=O)O)[C@H]21	7.44
CCC(C)(C)C(=O)OC1CC(O)C=C2C=CC(C)C(CCC3CC(O)CC(=O)O3)C21 (centres unmarked) [Prior art cpd., reference compound]	7.35
CCC(CC)(CC)C(=O)O[C@H]1C[C@H](O)C=C2C=C[C@H](C)[C@H](CC[C@@H](O)C[C@@H](O)CC(=O)O)[C@H]21	7.49
CCCC(CCC)C(=O)O[C@H]1C[C@H](O)C=C2C=C[C@H](C)[C@H](CC[C@@H](O)C[C@@H](O)CC(=O)[O-])[C@H]21.[Na+]	7.45
